Numbers sourced from the NTF2 design screens of Basanta et al. (2020).

Measured protease stability score accompanies every entry in the list below.
procedure details: protease stability score; higher = more stable; yeast display proteolysis, trypsin and chymotrypsin;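 note: relative to predicted unfolded state with 0 unfolded-like and 1 meaning tenfold more protease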
// no unit string in output, number only

These solved cases illustrate the format of a correct answer.
SRAEEEARHLLHLLIHSLNTGDEDTSRKMLDPHVRLIIDGREHHGREDLLWFLRFLGFDHVHHVELHDLHDVNGRIKVDVKFHMFVGDKLIKTTVIYFILKINGRWVFESIKVE :: 1.23
SEEEHWLDDAFRWLIELIFTGDETEIEKMIDPNVKIHIGEKNNHGREIMIEWLERLGVKHVREMRIRHVHRQGNKLIVHGEIHREVDGVKIETESLIVAKKVDGQWHLQSVRVN :: 2.37
DEDKKVAELVMRLWEHTQRTGDPDMMSKLADPNVRVDVNGREIHGRERLFEHLEHMRINHFRLRDREIHVQGDYVKIRIEGELDGDINGREDRHRIELIIVVEKINGRWFMTEVIVIVK :: 1.37

GET /value?item= `TEIKHHVKEMADLFLENLLTGNEDILKKLMDPNALLVVGNKHIHGWEEMIKQWKDVRRHMRIEHVETEDIELQGDKAHIHVNIFGQINGKRKESHVRIHFEVFDGVLRRVEIDER` &field=protease stability score returns 1.18

GET /value?item= `DEDEDEIKRIVEIIEHALRTGDEDLMRRLFDPNARLDINGREVHGRESFIEILHHWLHELRFKSLRLHQVHIVDGKAHVDTRVTYHINGVEIHIETERNMLKVDGRWFITHEHHR` &field=protease stability score returns 0.025
